Reported TGI values for the following compounds.
system: NCI-H226 lung; test: NCI tumour cell line growth inhibition, 48 h
// note: answer is a bare numeric in µM

compound=C=CC(=O)N[C@H]1CCOC[C@H]1Nc1ncc2cc(-c3c(Cl)c(OC)cc(OC)c3Cl)ccc2n1 endpoint_name=TGI reported_measurement=87.2

Need TGI, item c1cn2cc(-c3ccc4cn[nH]c4c3)nc(Nc3ccc(N4CCOCC4)cc3)c2n1
24.6

---

test system: EKVX NSCLC; assay: NCI tumour cell line growth inhibition, 48 h; in the data active means GI50 below about 0.43 µM; inactive means the rest
Please reply with one of these outcomes: active, inactive

Reference set (3 entries):
compound=Cc1cc(Cc2cc(C)cc(C(C)(C)C)c2O)c(O)c(C(C)(C)C)c1 category_label=inactive
compound=CCN(CCCl)CCCNc1c2ccccc2nc2ccc(OC)cc12 category_label=inactive
compound=NS(=O)(=O)c1cccc(N=Cc2c(O)[nH]c3ccccc23)c1 category_label=inactive

What classification did C=C(c1ccc(C(=O)N(C)c2ccccc2N)cc1)C(C)N1C(=O)[C@H]2CCCN2C(=O)c2ccccc21 (stereo partly drawn) end up with in this test?
inactive

Assay outcome for O=C(N/N=C/c1cc(Cl)cc(Cl)c1[O-])c1ccccc1O.O=C(N/N=C/c1cc(Cl)cc(Cl)c1[O-])c1ccccc1O.[Ni+2] : what was it?
inactive

Check the results log: what was the call for O=C(N/N=C/c1ccc([N+](=O)[O-])cc1)c1ccc2nc(-c3ccc(Cl)cc3)[nH]c2c1 ?
inactive

Entry COc1cccc2c1C(=O)c1c(O)c3c(c(O)c1C2=O)C[C@@](O)(C(=O)CO)C[C@@H]3OC1C[C@H](N)[C@H](O)[C@H](C)O1 (stereo partly drawn) : call = ?
active

For O=Nc1ccc2ccccc2c1O , what call appears in the results of this test?
inactive
